Consider the following sequences; for each one, report its apparent KD of MS2 coat protein.
test system: MS2 coat protein; test: apparent KD of MS2 coat protein; higher = weaker reporter binding; conditions: Eterna round: R107; input ligand: arginine 13.2 mM
Answers are plain numbers, in µM.

GAUGAUAUUGCAGAUACCAGACACAUGAGGAUCACCCAUGUCUCUGAGAUGAAGGAUCGUGUCCCUUGGCAGCUGCGAUAUCAUC [Bulgaria] :: 0.0251
AGUACCAAUGAGGAUACCAGAGUGCGACGCCGAAACCUUGACAUGAGGAUCACCCAUGUACUCCCUUGGCAGCCUGUACUUGCCA [theeternabot_exclusion_MS2_Theo_B_17] :: 0.0228
AAUAAUAUGAGGAUCACCCAUAUAAAAGAUACCAGAGUGAUGAUCCUCCCUUGGCAGCUUAACGCUGAUUGAUUACAAUCAGCGA :: 0.0687
AAUAGCAUGAGGAUCACCCAUGUAAAAGAUACCAGAGUGAUGAUCCUCCCUUGGCAGCUUAACGCUGAUUGAUUACAAUCAGCGA :: 0.037
AAACGACAUGAGGAUCACCCAUGUGCCGAUACCAGCCGGAUAUACGGCCCUUGGCAGCGGAGUAAAUCCGGAGGACAAUGGGUAA [Same State Theophylline A GF6] :: 0.0377
GCUAGGUCAUCGGCCGCCACUAUUAGUGGUUCGAACAUGAGGAUCACCCAUGUGCCACAUGCGCAUAGGACCGGGAUGACCUAGC [SSTB NP+V+V2 #8] :: 0.0118
AAAAGAGGUGGAAGGAGCGGGAGACAUGAGGAUCACCCAUGUGAAGUUACGAAAGGUUCAGCCCAGGUAGGUCGCCAUGUCGAAA [eefemullin] :: 0.00133
ACAUGAGGAUCACCCAUGUAAUUAACAGAAGGAGCGUGAUGGAUCACAGGUAGGUCGCUGUACUUAGAAAUAACUCUCAUGAAUA [JR_Nu_SSArginiA_Sub024] :: 0.0152

// for each sequence below, give its apparent KD of MS2 coat protein
1. AUCGCACCUGGUGAUACCAGCGUUUGCUCGCGACAUGAGGAUCACCCAUGUGGCCAGUGAUGCCCUUGGCAGCAUGGUCGGUGCA [Same State - Theophylline B (Freestyle 27)]
2. CGUGUCGUAACUGAUACCAGUGUACUGACAUGAGGAUCACCCAUGUUGGGUUUUGUUGUACACCCUUGGCAGCAGAAUCGAUACG [AstrosExyTheB#7]
3. GGAUAGGACACGGCCGCCACUAGCUAGGAUACUAGCAACAUUUCCUCAUAUGAGGAUCACCCAUAUAGGACCGGGUGUCCUAUCG

Outgoing:
[0.0755, 0.0463, 0.215]

Incoming: Name the recorded apparent KD of MS2 coat protein of the sequence listed here: GUAACACAUGAGGAUCACCCAUGUUCCGAUACCAGUAUUGAAGAUUACCCUUGGCAGCGGGUAGGUCGGAGUGGACGGCCCGAGC [theeternabot_sameState_MS2_Theo_A_8]
Outgoing: 0.0179

----------
test system: MS2 coat protein; assay: apparent KD of MS2 coat protein, switch OFF state (with FMN for OFF switches, without FMN for ON switches); designed switch direction (-1 OFF switch, 1 ON switch): -1; higher = weaker reporter binding; settings: FMN input: 0 or 200 uM; Eterna round: R93 (includes R88 designs)
reported.endpoint: apparent KD of MS2 coat protein (nM)
Numbers only, in nM.

Recorded apparent KD of MS2 coat protein, per entry:
AAAAAGCAAGGAUAUACAUGAGGAUCACCCAUGUGAAAAAAAACAAUAAGAAGAACAAGUAGAAGGUGCAAAAA [Mod of Ex3 Tesla 1 - Jieux - Exclusion 3] :: 28.2
AAAAAGCGAGGAUAUACAUGAGGAUCACCCAUGUGAGAGAAAAAAAGGAGAAAAAAAAGUAGAAGGCGCAAAAA [Abraham Harold Maslow] :: 68.3
GAAAACUGAGGAUAUACUUUGGGAAAAGAAAAGAUGAUGUUACAUGAGGAUCACCCAUGUAGAAGGCAGAAAAA [Default title] :: 39.4

Note: attention shifts to another entry.
Incoming: Input AAGAAGUUAGGAUAUACAAGAAAGAAAGAAAAGAAAAGAAAACAUGAGGAUCACCCAUGUAGAAGGAACUAGAA [EteRNA is fun!] , output reported apparent KD of MS2 coat protein.
Outgoing: 19.6

----------
Provide the recorded apparent KD of K4 kissing-loop reporter for the entries that follow.
tested on: K4 kissing-loop RNA reporter; assay: apparent KD of K4 kissing-loop reporter; higher = weaker reporter binding; conditions: Eterna round: R107; input ligand: arginine 13.2 mM;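 note: bound reporter read as fluorescence of individual clusters on recovered sequencing chips by microscopy, with normalized cluster intensities fitted with a binding model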

Record excerpt, results attached:
CUAGGCAACACAGGAUAUGUCCGAGUGAUGUUCGAGCCUUUCCAUUGACGAAAUUAAUGGUGGGUGACAGAAGGGUGAGUGCUGA [Xezaqu] :: 577 nM
UGACAUUGCUCAGAUACCAGACCUGAGGAUCACCCAGGUGCCAAAACGUACUAAAUAAAGGUCCCUUGGCAGCUGAGCAAUGUCU [TheoBX 13] :: 38.9 nM

Please state apparent KD of K4 kissing-loop reporter for every sequence in the list that follows.
1. GAUUAUUAUUCUAAAUAACAUUAUUCAGAAGGAGCGUGUUUGUACACAGGUAGGUCGCUGAAUGCUAAGCCAGUGAUGUUGGUAA [JR_SSArginiA_Sub001]
2. AUUUAUUACAGAAGGAGCGUGUAUUUAUAAUCAUUUAUCUUAGCGAGUGAUGUUCGCUUUACACAGGUAGGUCGCUGUUUAUUUA [JR_Nu_ExcArginiB_Sub027]
3. AUGGGUUUGGGAGGAUAUCCUUCCCACGUCGAAGUACCGUGCUUGAUGGAGUGAUGUUCGAUCAGAGGAGAAGGCCCGGAUUUAU [Same State FMN B GF21]
4. AACGCUGUGAAUAACACAGCGAAUAAUUCGCGAGGACCGGUACGGCCGCCACUCGCUAACUGCGAGUGAUGUUCGAUAAUAAAAU [Mat - Mod of OpenEnded 3 - D12]

Outgoing:
1. 206 nM
2. 128 nM
3. 612 nM
4. 116 nM

----------
Please respond with reported apparent KD of MS2 coat protein for every item in the list.
tested on: MS2 coat protein; assay: apparent KD of MS2 coat protein; designed switch direction (-1 OFF switch, 1 ON switch): -1; higher = weaker reporter binding; settings: input ligand: microRNA oligo, concentration not stated
Output should be the measured figure followed by the unit it is expressed in.

Consider the following illustrative entries.
CUGUUUUUCGCAGGAUAUGCUCCUCCAUUAUUUGCAGAAGGGCGUUAAACAUGAGGAUCACCCAUGUAUGGUAAUGACUAUUUC [JR_ExcNG1_Sub065] (Eterna round: R96, puzzle: Exclusion NG 1) :: 43.6 nM
ACAUGAGGAUCACCCAUGUCAGGUGGGUCCUCUCCGGCUGUUGAGGAUAUAGUCCGGUAUCCGCGCUAGAAGGUGAGGGCCGGC [Aenatbe mod 17] (Eterna round: R96, puzzle: Exclusion NG 3) :: 31.1 nM
AUAAAUCAUGUAGGAUAUGCAUAGCAAAGCUAUGCAGAAGGACAUGAGGAUCACCCAUGUCAUUCCGUCUGGAGACAGACGGGA [Mat - Exclusion NG 1 - Mod of JL - D57] (Eterna round: R96, puzzle: Exclusion NG 1) :: 26.4 nM
ACAUGAGGAUCACCCAUGUGCACGUAAUGGCUCAUGUAGAGUGAGGAUAUGCGUGGCGAACUCGCGCAGAAGGCACAAGACUGG [Deportation 19 - Jieux - Exclusion NG 3] (Eterna round: R96, puzzle: Exclusion NG 3) :: 65.9 nM
AGUACUAUGCGAGCUGACUUGCGUAGUGCAGCAAGUGAAACAUGAGGAUCACCCAUGUCCUCAUUUGCUCGUCUUAU [Mat - Sensor v3 - Turn-off var 2 - D1] (Eterna round: R96, puzzle: Sensor v3, turn-off variant 2) :: 662 nM
ACAUGAGGAUCACCCAUGUGGACGUAAAGGCUCAUGUAGAGUGAGGAUAUGUGAGACGAACGAGAACAGAAGGCACAAGACAGG [Deportation 6 - Jieux - Exclusion NG 3] (Eterna round: R96, puzzle: Exclusion NG 3) :: 16.7 nM
AGGUCCUUCUGGAGACAUGAGGAUCACCCAUGUCGGGUCAGCGAGGAUAUCGGUUAAUAAUGUGACGAGAAGGCGCGGACCGAU [Ex NG3 #56] (Eterna round: R96, puzzle: Exclusion NG 3) :: 19.5 nM
UUAUUAAUUAAGACUGCAAGAUCACAUGAGGAUCACCCAUGUCAGGAUAUCAGCUCGUUUAGAGCUGAGAAGGGACAAGCAGUC [ExNG3/15-A2] (Eterna round: R96, puzzle: Exclusion NG 3) :: 98 nM

Okay, now this sequence:
Incoming: Assign apparent KD of MS2 coat protein to the following record: AACGUGCAGCUUUGCUGUACGCGUACAUGAGGAUCACCCAUGUAGGAUAUGGUACGCAAAGCGUGCUAGAAGGAUAUGGAGAAA [Mat - Exclusion NG 3 - Mod of JL - D82] (Eterna round: R96, puzzle: Exclusion NG 3)
Outgoing: 11.5 nM
